Entry source: PubChem BioAssay

experiment-summary: inhibitors of TNFa-induced NFkB p65 translocation, primary screen, imaging, HUVEC, MLSMR starter and 10KST1 sets (AID 438);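 also: compound added about 3h40 before a 20 min TNFalpha stimulation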
test-settings: HUVEC TNFa-induced p65 nuclear translocation; measured here: nuclei count (cytotoxicity indicator), at 2.08 µM
reported-endpoint: cell count
Could you respond with only the numeric value?

CCC1(CC)NC(=O)NC1=O | 665
OC(CN1CCCCC1)Cn1c(C(F)(F)F)nc2ccccc21 (centres undefined) | 730
COc1cc(C2c3c(oc4c(C)cc(C)cc4c3=O)C(=O)N2Cc2cccnc2)cc(OC)c1OC (centres undefined) | 632

Noted for COc1ccc(N2C(=O)c3cccc4cccc(c34)C2=O)nn1 : its cell count reads 345

Short answer for CN(C)c1ccc(/C=C/C(O)=C2/C(=O)N(C)C3(C)CC2c2ccccc2O3)cc1 (centres undefined) : cell count was 356

Query C=CCN(CC=C)C(=O)Nc1cc(Cl)ccc1OC yields cell count of 373

Reported cell count ( COc1cccc(Nc2nc(=O)[nH]nc2C)c1 ) = 372

Looking up CC(=O)NCc1ccc(C(=O)CSc2nnc(-c3ccncc3)n2Cc2ccccc2)o1 , I found its cell count recorded as 461

# molecule COc1ccc2c(c1)CCc1cc(C(=O)N3CCN(c4ccc(N5CCOCC5)nn4)CC3)sc1-2 ; its cell count = 583

Sure, the documented cell count for Cc1cc(NCCN2CCOCC2)n2nc(C)c(-c3ccccc3)c2n1 is 685

According to the records, this molecule Cc1cccc2cc(CN(Cc3nnnn3Cc3ccco3)C3CCCC3)c3nnnn3c12 displays cell count of 719

Per the records, this molecule ( Cc1cc(C(=O)CSCCCn2c(=O)[nH]c3ccccc32)c(C)n1C ) has cell count equal to 494

Memo: CC(=O)Nc1ccc(N2CCN(Cc3ccccc3F)CC2)cc1 , reported cell count: 452

cell count reported for this molecule COc1ccc(CN(C(=O)CN2C(=O)COc3ccccc32)C2CCCC2)c(OC)c1 : 658

The reported cell count of the molecule CC(C)Cn1c2c(c(O)c(C(=O)Nc3ncccc3O)c1=O)CCCC2 was 576

The reported value for Cc1ccc(-c2nnnn2CS(=O)(=O)c2ccccc2)cc1 in terms of cell count is 433

get_value(item= CCOC(=O)C(NC(=O)CC)(Nc1ccc(S(=O)(=O)Nc2onc(C)c2C)cc1)C(F)(F)F (centres undefined) , readout=cell count) returns 320

molecule COC(=O)c1ccc(COc2ccc(C3C4=C(CCCC4=O)Nc4onc(C)c43)cc2)cc1 (centres undefined) , cell count observed: 303

###

experiment-summary: TLR3 IRF3 reporter activation blockers – cell-based, poly I:C stimulus, luciferase, 10K MLSCN set, primary screen (AID 602277)
test-settings: HEK293-TLR3 RL24 IRF3 luciferase reporter, at 10 µM, stronger effect = higher value
Think of 10% as a floor: if inhibition stands on it or above, it is 1 (yes); beneath it, 0 (no).

COc1ccc(C(=O)CSc2nnc(CNc3ccc(C)cc3C)o2)cc1 | 1 (yes)

Quick check, inhibition >= 10%? Cc1cccc(-n2nnnc2SCc2csc(-c3ccccc3)n2)c1
0 (no)

###

target: Voltage-gated potassium channel subunit beta-2 (Rattus norvegicus)
experiment-summary: enhancers of rat Kvbeta2 NADPH turnover – biochemical, NADPH fluorescence, primary screen (AID 623);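 also: fluorescence intensity change per second fitted from 20 to 320 s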
test-settings: Recombinant KvBeta, NADPH fluorescence decrease slope, 10 min; at 10 µM; stronger effect = lower value
// NADPH fluorescence slope lookup, one value per entry
Respond using a number only.

Please review the following examples before continuing.
Cc1cccc(OCC(=O)Nc2ccc(N3CCCC3)cc2)c1C | -6.9e-05
CCn1cc(C2=NOC(C(=O)Nc3c(C)nn(Cc4ccc(F)cc4)c3C)C2)c(C)n1 (configuration not stated) | -2.9e-05

The recorded NADPH fluorescence slope for entry COc1ccc(CN(C(=O)CN2C(=O)COc3ccccc32)C2CCCC2)c(OC)c1 equals -6.2e-05

get_value(item= O=C(O)CCC1(C(=O)O)OCCc2ccccc21 (configuration not stated) , readout=NADPH fluorescence slope) returns -3.7e-05

Record CN1CCN(c2nc(-c3ccncc3)nc3ccccc23)CC1 . Reported NADPH fluorescence slope: -3.7e-05

What the record says about CCC1(C)Cc2c(sc3nc(SCC(=O)O)[nH]c(=O)c23)CO1 (configuration not stated) : NADPH fluorescence slope is -1.8e-05

Please fill in: NADPH fluorescence slope reported for CC(C)(C#N)Nn1cnnc1 = -1.3e-05

Per the record, COCCn1nnnc1C(c1ccc(OC)cc1)N1CCN(c2ccccc2F)CC1 (configuration not stated) has NADPH fluorescence slope of -9.6e-06

So for COCCn1c(CN2CCN(c3ccccc3F)CC2)nc2c1c(=O)n(C)c(=O)n2C , the logged NADPH fluorescence slope turned out to be -2.3e-05
